Assay: chemical genetic growth profiling, strain panel (AID 1159580);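 note: tested at 20 µM; growth read once vehicle control cultures reached saturation at 30 °C; 1 = growth at the plate median or of vehicle wells; lower values mean less growth of the strain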
Conditions: S. cerevisiae deletion strains, growth OD, locus YLR221C, strain rsa3, active compounds read low
Hit rate of the full screen: of about 5,500 compounds, about 2,000 (36%) were called active. Roughly 18% stayed inconclusive and do not appear here. The list shows a part of the results.
The following molecules are shown together with reported normalized growth values.
Could you keep your reply to the number by itself?

Known results for molecules:
• CC(=O)O[C@H]1C[C@@]2(C)[C@H](c3ccoc3)OC(=O)[C@H]3O[C@]32[C@@]2(C)C1[C@]1(C)C(C[C@H]2OC(C)=O)C(C)(C)[C@H](OC(C)=O)C[C@@H]1OC(C)=O (stereo partly drawn) = 0.987
• CC(=O)O[C@@H]1CC2C(C)(C)[C@H](O)C[C@H](O)[C@]2(C)C2CC[C@@]3(C)[C@H](c4ccoc4)OC(=O)[C@H]4O[C@]43[C@@]21C (stereo partly drawn) = 0.972

Here is another molecule to look at.
stdin: Sample CC(=O)O[C@@H]1CC2C(C)(C)C(=O)CC[C@]2(C)C2CC[C@@]3(C)[C@H](c4ccoc4)OC(=O)C4OC43[C@@]21C (stereo partly drawn) — what was its normalized growth?
stdout: 0.946

* * *

Assay: chemical genetic growth profiling, strain panel (AID 1159580);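 note: tested at 20 µM; growth read once vehicle control cultures reached saturation at 30 °C; 1 = growth at the plate median or of vehicle wells; lower values mean less growth of the strain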
Settings: S. cerevisiae deletion strains, growth OD, locus YNL006W, strain LST8, active compounds read low
About 2,000 (36%) of roughly 5,500 compounds were called active. Roughly 18% stayed inconclusive and do not appear here. Some of the results follow.
quantity: normalized growth
Could you keep your reply to the number by itself?

Known results for compounds:
• Cc1csc2ncnc(N/N=C\c3ccccc3Cl)c12 = 0.973
• N/C(CSc1ccc(Cl)cc1)=N/OC(=O)c1ccc(C(F)(F)F)cc1 = 0.892
• C#Cc1cccc(N=Cc2cc(Cl)cc(Br)c2O)c1 = 0.0957

Here is another compound to look at.
stdin: Sample Cc1ccc(C(=O)O/N=C(/N)CSc2ncccc2C(F)(F)F)cc1 — what was its normalized growth?
stdout: 1.01

* * *

Assay: chemical genetic growth profiling, strain panel (AID 1159580);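 note: tested at 20 µM; growth read once vehicle control cultures reached saturation at 30 °C; 1 = growth at the plate median or of vehicle wells; lower values mean less growth of the strain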
Conditions: S. cerevisiae deletion strains, growth OD, locus YOR070C, strain gyp1, active compounds read low
The campaign covered roughly 5,500 compounds. About 2,000 (36%) were called active. Not shown: some 18% with an inconclusive outcome. This is one part of the list.
The following compounds are shown together with reported normalized growth values.
Could you keep your reply to the number by itself?

- O=c1c(-c2ccc(O)cc2)coc2cc(O)cc(O)c12: 1
- Nc1ccc(C(=O)Oc2ccccc2)c(O)c1: 0.937

Here is another compound to look at.
stdin: Sample O=C1CC[C@]23C=CC(=O)NCCCCNCCCNC(=O)/C=C/c4ccc(c2c4)O[C@@H]3C1 — what was its normalized growth?
stdout: 1.02

* * *

The following compounds are shown together with reported normalized growth values.
Test: chemical genetic growth profiling, strain panel (AID 1159580);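 note: tested at 20 µM; growth read once vehicle control cultures reached saturation at 30 °C; 1 = growth at the plate median or of vehicle wells; lower values mean less growth of the strain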
Conditions: S. cerevisiae deletion strains, growth OD, locus YKL193C, strain SDS22, active compounds read low
Out of some 5,500 compounds screened, about 2,000 (36%) were called active. About 18% were inconclusive and are not listed. The list shows a part of the results.
Could you keep your reply to the number by itself?

stdin: Sample Cc1nc(-c2ccc(C(F)(F)F)cn2)[nH]c(=O)c1Cl — what was its normalized growth?
stdout: 0.903

stdin: Sample CC(O)(CNCc1ccc(Cl)cc1)CSc1ccccc1Cl (stereo unspecified) — what was its normalized growth?
stdout: 0.985

stdin: Sample CCCc1cnc(N2CCN(CC(=O)N(c3ccccc3)C3CCCCC3)CC2)nc1 — what was its normalized growth?
stdout: 0.99

stdin: Sample O=C1c2ccccc2O[C@@H](c2ccccc2)[C@@H]1NC1CCCCC1 — what was its normalized growth?
stdout: 0.902

stdin: Sample Cc1cc(C(=O)N(c2ccccc2)C(C)C2CC2)c(Cl)cc1Cl (stereo unspecified) — what was its normalized growth?
stdout: 0.977

stdin: Sample O=C1c2ccccc2O[C@@H](c2ccccc2)[C@@H]1NCc1ccccc1 — what was its normalized growth?
stdout: 0.905
